Reported residual activity by item:
tested system: MAPK11 (human) (UniProt Q15759)
Sequence (Q15759 whole entry, looked up): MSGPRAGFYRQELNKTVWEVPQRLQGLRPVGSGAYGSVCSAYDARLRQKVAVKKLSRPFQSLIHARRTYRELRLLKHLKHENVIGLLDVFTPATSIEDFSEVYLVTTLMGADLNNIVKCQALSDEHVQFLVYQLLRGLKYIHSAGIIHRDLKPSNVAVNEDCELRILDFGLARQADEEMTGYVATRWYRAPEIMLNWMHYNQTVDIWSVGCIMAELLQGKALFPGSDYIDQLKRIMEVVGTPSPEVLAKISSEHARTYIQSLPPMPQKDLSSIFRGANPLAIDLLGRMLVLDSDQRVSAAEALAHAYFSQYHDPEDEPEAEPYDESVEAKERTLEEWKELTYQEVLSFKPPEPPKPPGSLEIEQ
assay name: radiometric filter-binding kinase assay
cond: compound 1.0 µM
observed property: residual activity (%)

> print(dat)
                             compound.string  observed.property  assay.result
 1  Cc1cc(SCc2sc(-c3ccc(C(F)(F)F)cc3)nc2C)ccc1OCC(=O)O  residual activity            91
 2  NC(=O)c1cc2c(-c3cccc(-c4ccccc4)c3)cnc(N)c2s1  residual activity           111
 3  COc1ccc(N(C(=O)Nc2c(C)cccc2C)c2cc(Nc3ccc(N4CCN(C)CC4)cc3)ncn2)c(OC)c1  residual activity            19
 4  CN(C)C/C=C/C(=O)Nc1cccc(C(=O)Nc2ccc(Nc3nccc(-c4cccnc4)n3)cc2)c1  residual activity            82
 5                           CCCC(CCC)C(=O)O  residual activity            82
 6  O=c1c(O)c(-c2ccc(O)c(O)c2)oc2cc(O)c(O)c(O)c12  residual activity           101
 7  Cc1ccc(-c2ccc3c(ccc4sc5c(c43)NC[C@@H](C)NC5=O)n2)cn1  residual activity           126
 8  CC(C)(C#N)c1ccc(N2C(=O)OCc3cnc4ccc(-c5cnc6ccccc6c5)cc4c32)cc1  residual activity            89
 9  NC1(c2ccc(-c3nc4ccn5c(=O)[nH]nc5c4cc3-c3ccccc3)cc2)CCC1  residual activity            77
10  N#Cc1c(C2CCNCC2)cc(-c2c(O)cccc2OCC2CC2)nc1N  residual activity            88
11            Oc1ccc(/C=C/c2cc(O)cc(O)c2)cc1  residual activity           112

====

tested system: MAPKAPK2 (human) (UniProt P49137)
Sequence (P49137 whole entry, looked up): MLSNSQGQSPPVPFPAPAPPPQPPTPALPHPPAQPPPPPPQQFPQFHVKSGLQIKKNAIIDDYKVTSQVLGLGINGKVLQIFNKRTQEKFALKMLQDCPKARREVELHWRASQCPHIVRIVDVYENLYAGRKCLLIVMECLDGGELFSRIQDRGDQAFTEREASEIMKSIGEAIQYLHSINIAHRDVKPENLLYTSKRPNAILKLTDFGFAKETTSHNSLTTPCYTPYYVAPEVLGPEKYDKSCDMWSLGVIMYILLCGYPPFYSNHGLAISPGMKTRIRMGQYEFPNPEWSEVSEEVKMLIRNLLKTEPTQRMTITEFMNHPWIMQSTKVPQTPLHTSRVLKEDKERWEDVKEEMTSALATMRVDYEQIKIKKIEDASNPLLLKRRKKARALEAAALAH
assay name: radiometric filter-binding kinase assay
cond: compound 10.0 µM
residual activity strictly less than 80% = true (1). Otherwise false (0).

> print(dat)
                            compound.string  answer.label
1        Oc1ccc2ccccc2c1SSc1c(O)ccc2ccccc12      true (1)
2  CNc1nc(-c2ccc3c(N)n[nH]c3c2)cc(N2C[C@@H](C(=O)NC3CCCCC3)CC[C@H]2C)n1     false (0)
3  NC1(c2ccc(-c3nc4ccn5c(=O)[nH]nc5c4cc3-c3ccccc3)cc2)CCC1     false (0)
4  CCCCCc1ccc(/C=C/[C@H](O)[C@@H](CO)NC)cc1     false (0)
5  O=C(Nc1ccccc1-c1cn2c(CN3CCNCC3)csc2n1)c1cnc2ccccc2n1      true (1)
6  COc1cc2ncn(-c3cc(OCc4ccccc4S(C)(=O)=O)c(C#N)s3)c2cc1OC     false (0)
7    CCn1c(-c2nonc2N)nc2cncc(CNC3CCNCC3)c21     false (0)
8   Cc1nc(-c2ccc(OCC(C)C)c(C#N)c2)sc1C(=O)O      true (1)
9  CCNc1nc(Nc2cc(F)c(C(=O)N3CCOCC3)cc2OC)ncc1C(F)(F)F     false (0)

====

Below, each of the compounds is paired with its reported residual activity value.
tested system: CDK2 CCNA2 (human) (UniProt P20248+P24941)
assay name: radiometric filter-binding kinase assay
cond: compound 10.0 µM
observed property: residual activity (%)

> print(dat)
                            compound.string  assay.result
1  O=C(Nc1ccccc1-c1cn2c(CN3CCNCC3)csc2n1)c1cnc2ccccc2n1           115
2  NCC(=O)Nc1ccc(-n2nc(C(F)(F)F)cc2-c2ccc3c(ccc4ccccc43)c2)cc1            95
3  NS(=O)(=O)OC[C@@H]1C[C@@H](n2ccc3c(N[C@H]4CCc5ccccc54)ncnc32)C[C@@H]1O            90
